Test system: HOP-62
Assay: NCI tumour cell line growth inhibition, 48 h
Activity calls are given as the source filed them. No stated cut-off is given here; in the data, active = GI50 up to about 1.1 µM and inactive = higher. Where a SMILES comes first, the peptide text is derived from it. [ ]: non-standard residue; d: D form. ξ: configuration not given here. ξThz(5,5-Me2) = CC1(C)SCNC1C(=O)O
Classes used: active, inactive

>  <compound>
O=c1nc2n3c4c(cccc4nc-2c(=O)[nH]1)CCC3

>  <classAssignment>
inactive

$$$$
>  <compound>
CC(NC(=O)c1c(O)[nH]c(=S)[nH]c1=O)c1ccc([N+](=O)[O-])cc1 (stereo not drawn)

>  <classAssignment>
inactive

$$$$
>  <compound>
CC(C)C1CC2C(=O)N(c3ccccc3)C(=O)C2c2[nH]c3ccccc3c21 (stereo not drawn)

>  <classAssignment>
inactive

$$$$
>  <compound>
Cc1ccc(S(=O)(=O)NNC2Oc3cc4c(cc3C(c3ccccc3O)C2C)OCO4)cc1 (stereo not drawn)

>  <classAssignment>
inactive

$$$$
>  <compound>
O=c1[nH]c2ccc(CC(=S)N3CCOCC3)cc2s1

>  <classAssignment>
inactive

$$$$
>  <compound>
Oc1c(Cl)ccc2cccnc12

>  <classAssignment>
inactive

$$$$
>  <compound>
CC(=O)NC1CC(C(C)(C)NC(C)=O)CC=C1C (stereo not drawn)

>  <classAssignment>
inactive

$$$$
>  <compound>
Cc1cc(=O)nc(S(=O)(=O)NC(=S)Nc2ccc(Br)cc2)[nH]1

>  <classAssignment>
inactive

$$$$
>  <compound>
COc1cc(/C=C2/C(=O)N(C(=O)OCc3ccccc3)C(Cc3cc(OC)c(OC)c(C)c3OC)C(=O)N2Cc2ccccc2)c(OC)c(C)c1OC (stereo not drawn)

>  <classAssignment>
inactive

$$$$
>  <compound>
CCCCCCCCCCCCCCCCOCC(COP(=O)([O-])OCC[N+](C)(C)C)OCCCCCCCCCCCCCCCC (stereo not drawn)

>  <classAssignment>
inactive

$$$$
>  <compound>
C=C1CC(OC)(C(O)C(=O)N[C@H]2OCO[C@H]3C2O[C@H](C[C@@H](CO)OC)C(C)(C)C3OC)O[C@H](C)[C@@H]1C (stereo partly drawn)

>  <classAssignment>
active

$$$$
>  <compound>
CSCC[C@H](NC(=O)[C@H](CC(C)C)NC(=O)[C@H](Cc1c[nH]cn1)NC(=O)CNC(=O)C1N(C(=O)[C@@H](C)NC(=O)[C@H](Cc2c[nH]c3ccccc23)NC(=O)[C@H](CCC(N)=O)NC(=O)[C@@H](N)CC(N)=O)CSC1(C)C)C(N)=O (stereo partly drawn) (H-NQW[dA][ξThz(5,5-Me2)]GHLM-NH2)

>  <classAssignment>
inactive

$$$$
>  <compound>
COc1ccc(NC(=O)/C(O)=C/C(=O)c2ccccc2)cc1

>  <classAssignment>
inactive

$$$$
>  <compound>
CCOP(=O)(Nc1ccc2oc(=O)c3ccccc3c2c1)OCC

>  <classAssignment>
inactive

$$$$
>  <compound>
O=C(/C(=N\Nc1ccc([N+](=O)[O-])cc1[N+](=O)[O-])NC12CC3CC(CC(C3)C1)C2)C(Br)C(=O)c1ccccc1 (stereo not drawn)

>  <classAssignment>
inactive

$$$$
>  <compound>
COc1cc2c(c(OC)c1OC)-c1[nH]ncc1CC2

>  <classAssignment>
inactive

$$$$
>  <compound>
CC(=O)O[C@@H](c1nccn1Cc1ccccc1)[C@H]1OC(C)(C)O[C@@H]1[C@H]1COC(C)(C)O1

>  <classAssignment>
inactive

$$$$
>  <compound>
COc1cc(/N=N/N(C)C)c(C(C)c2c3cc(OC)c(OC)cc3cc[n+]2C)cc1OC (stereo not drawn)

>  <classAssignment>
inactive

$$$$

---

Tested on: SW-620
Experiment: NCI tumour cell line growth inhibition, 48 h
Calls of active or inactive are those of the source. No stated cut-off is given here; in the data, active = GI50 up to about 1.1 µM and inactive = higher.
Consider the following compounds and their measured GI50 readings.

>  <compound>
C[N+](C)(C)C(Cc1c[nH]c(=S)[nH]1)C(=O)O (stereo unspecified)

>  <GI50>
> 100 µM (inactive)

$$$$
>  <compound>
CCOC(=O)Nc1ccc(S(=O)(=O)I)cc1.CCOC(=O)Nc1ccc(S(=O)(=O)I)cc1.CNC(=O)N=O.NC(=O)OCCCl

>  <GI50>
61.8 µM (inactive)

$$$$
>  <compound>
CCCCCCCCCCCCCCCCOCC(COP(=O)([O-])OCC[N+](C)(C)C)OCCCCCCCCCCCCCCCC (stereo unspecified)

>  <GI50>
> 100 µM (inactive)

$$$$
>  <compound>
COc1cc(/C=C2/C(=O)N(C(=O)OCc3ccccc3)C(Cc3cc(OC)c(OC)c(C)c3OC)C(=O)N2Cc2ccccc2)c(OC)c(C)c1OC (stereo unspecified)

>  <GI50>
> 100 µM (inactive)

$$$$
>  <compound>
CCOC(=O)c1c(C)n(Cc2ccccc2)c2c1cc(O)c1[nH]c3c(c12)CCCC3

>  <GI50>
3.65 µM (inactive)

$$$$
>  <compound>
O=C(NCCCCCCO)c1cccc2cc3ccccc3nc12

>  <GI50>
29.9 µM (inactive)

$$$$
>  <compound>
CC(C)(CCCCC(C)(C)NC1=NCCO1)NC1=NCCO1

>  <GI50>
> 10 µM (inactive)

$$$$
>  <compound>
O=c1[nH]c(=O)c2ncn(-c3ccc([N+](=O)[O-])cn3)c2[nH]1

>  <GI50>
> 100 µM (inactive)

$$$$
>  <compound>
COc1ccc(C(=O)O/N=C2/CCC/C2=C\c2ccccc2)cc1

>  <GI50>
> 100 µM (inactive)

$$$$
>  <compound>
C#CCOCn1cnc2c(Cl)ncnc21

>  <GI50>
> 100 µM (inactive)

$$$$
>  <compound>
Cc1nccc2c1cnc1ccnn12

>  <GI50>
> 100 µM (inactive)

$$$$

---

Tested on: CCRF-CEM
Assay: NCI tumour cell line growth inhibition, 48 h
Active and inactive are the calls of the source. Cut-off read from the data, not from the text of the source: active = GI50 up to about 1.1 µM and inactive = higher.
Classes used: True for active, False for inactive

>  <molecule>
Cn1/c(=N\c2ccccc2[N+](=O)[O-])sc2ccccc21

>  <classAssignment>
False

$$$$
>  <molecule>
O=C(/C=C/c1ccccc1F)C(c1ccccc1)c1ccccc1

>  <classAssignment>
False

$$$$
>  <molecule>
CC(=O)O[C@H]1[C@@H](OC(C)=O)C(C)(C)/C=C/[C@H](C)C(=O)[C@@]2(OC(C)=O)C[C@@](C)(OC(C)=O)[C@H](OC(C)=O)[C@@H]2[C@H]2OC(=O)CC[C@@]2(OC(=O)c2ccccc2)[C@@H]1OCC(C)C

>  <classAssignment>
False

$$$$
>  <molecule>
COC(=O)C(C)(Cc1ccc2c(c1)nnn2C(C)=O)NC(C)=O (centres undefined)

>  <classAssignment>
False

$$$$
>  <molecule>
O=C(CCC(=O)Nc1ccc(Cl)c(Cl)c1)CC(=O)c1ccc(Br)cc1

>  <classAssignment>
False

$$$$
>  <molecule>
NC(=O)c1ncn(C2OC(CO)C(O)C2O)c1NC=O (centres undefined)

>  <classAssignment>
False

$$$$
>  <molecule>
N#C/C(=C\c1ccccc1F)C(=O)c1ccccc1

>  <classAssignment>
False

$$$$
>  <molecule>
O=[N+]([O-])c1cc(Cl)ccc1S(=O)(=O)c1ccccc1

>  <classAssignment>
False

$$$$
>  <molecule>
C=C1CC(OC)(C(O)C(=O)N[C@H]2OCO[C@H]3C2O[C@H](C[C@@H](CO)OC)C(C)(C)C3OC)O[C@H](C)[C@@H]1C (some centres undefined)

>  <classAssignment>
True

$$$$

---

System: SW-620
Assay: NCI tumour cell line growth inhibition, 48 h
Calls of active or inactive are those of the source. Cut-off read from the data, not from the text of the source: active = GI50 up to about 1.1 µM and inactive = higher. Positions of bridges follow the written chain, without caps; N, C: chain ends. Non-standard residues stand in square brackets, D forms with d. Residues, ends and D or L forms follow the SMILES beside them. *: point of attachment. Cbz = O=C(OCc1ccccc1)*; Aib = CC(C)(N)C(=O)O; OBn = c1ccc(CO*)cc1; βAla = NCCC(=O)O
Classes used: active, inactive

>  <molecule>
O=c1nc2n3c4c(cccc4nc-2c(=O)[nH]1)CCC3

>  <classAssignment>
inactive

$$$$
>  <molecule>
[C-]#[N+]C(=C\c1ccc(O)cc1)/C(=C/c1ccc(O)cc1)[N+]#[C-]

>  <classAssignment>
inactive

$$$$
>  <molecule>
CC1(C)NC(=O)C(NC(=O)C(CC(=O)OCc2ccccc2)NC(=O)OCc2ccccc2)CCCCNC(=O)CCNC1=O (centres undefined) (Cbz-D(OBn)K[Aib][βAla]; lactam 2-C; configuration not given here)

>  <classAssignment>
inactive

$$$$
>  <molecule>
CCOC(=O)C(Cc1ccc(N(CCCl)CCCl)cc1)NC(=O)C(Cc1ccccc1)NC=O (centres undefined)

>  <classAssignment>
active

$$$$
>  <molecule>
C#CCn1c2c(c3ccccc3c1=O)C(=O)c1ccccc1-2

>  <classAssignment>
inactive

$$$$
>  <molecule>
CCCCN(CCCC)CC(O)c1cc(-c2ccc(Cl)c(Cl)c2)nc2c(Cl)cc(Cl)cc12 (centres undefined)

>  <classAssignment>
inactive

$$$$
>  <molecule>
CCOP(=O)(OCC)C(Nc1ccc(F)cc1)c1ccccc1 (centres undefined)

>  <classAssignment>
inactive

$$$$
>  <molecule>
Cc1ccc(O)c(Cc2nc3ccccc3nc2-c2cccc(Br)c2)c1

>  <classAssignment>
inactive

$$$$
>  <molecule>
CN(C)c1ccc(N=O)c(O)c1.CN(C)c1ccc(N=O)c(O)c1.[SiH4]

>  <classAssignment>
inactive

$$$$
